Values compiled from the supplement of paper PMC8728848.

molecular target: Gal(a1-3)[Gal(a1-4)]Gal(b1-4)GlcNAc; test: glycan array binding signal (z-score within array); higher = stronger binding; conditions: glycan notation: IUPAC condensed, linker removed
This excerpt belongs to a sample that is enriched for the strongest signals.
# glycan array binding signal (z-score) annotations
Field format: numeric only.

Known glycan array binding signal (z-score) results, listed for orientation:
- DCL-1 (Homo sapiens), Q8IX05 (protein) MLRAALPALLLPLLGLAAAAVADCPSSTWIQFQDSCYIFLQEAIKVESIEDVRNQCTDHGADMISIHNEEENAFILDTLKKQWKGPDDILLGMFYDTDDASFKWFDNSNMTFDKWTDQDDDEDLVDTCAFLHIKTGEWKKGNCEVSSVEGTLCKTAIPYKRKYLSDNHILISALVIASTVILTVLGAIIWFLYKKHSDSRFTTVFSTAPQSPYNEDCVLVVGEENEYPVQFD: -0.245
- DCIR1 (Mus musculus), Q9QZ15 (protein) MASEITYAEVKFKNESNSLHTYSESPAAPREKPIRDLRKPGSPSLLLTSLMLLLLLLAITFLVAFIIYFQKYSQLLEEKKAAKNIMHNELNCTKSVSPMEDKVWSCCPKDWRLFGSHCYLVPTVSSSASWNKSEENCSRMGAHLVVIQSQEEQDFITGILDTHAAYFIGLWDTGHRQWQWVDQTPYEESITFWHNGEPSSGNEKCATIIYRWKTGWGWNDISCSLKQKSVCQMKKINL: 3.21
- AT3G44510(29) (Arabidopsis thaliana), F4J341 (protein) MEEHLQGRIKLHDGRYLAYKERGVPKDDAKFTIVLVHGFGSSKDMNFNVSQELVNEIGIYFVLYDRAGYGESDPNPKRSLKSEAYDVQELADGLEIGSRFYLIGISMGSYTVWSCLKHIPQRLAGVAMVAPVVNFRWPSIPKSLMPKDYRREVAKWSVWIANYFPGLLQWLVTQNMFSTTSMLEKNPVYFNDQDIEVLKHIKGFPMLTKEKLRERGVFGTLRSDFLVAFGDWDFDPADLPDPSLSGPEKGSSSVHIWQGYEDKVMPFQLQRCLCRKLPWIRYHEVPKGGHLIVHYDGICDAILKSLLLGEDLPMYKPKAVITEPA: 7.13
- XTP3-B-MRH1 (Homo sapiens), Q96DZ1 (protein) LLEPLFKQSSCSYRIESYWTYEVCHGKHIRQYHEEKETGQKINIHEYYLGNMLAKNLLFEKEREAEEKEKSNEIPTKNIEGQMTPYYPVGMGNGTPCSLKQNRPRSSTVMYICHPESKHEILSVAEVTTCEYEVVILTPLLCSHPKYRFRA: -0.853

Attention now shifts to the item below.
IN: For MRCL (Homo sapiens), NP_872425.1 (protein) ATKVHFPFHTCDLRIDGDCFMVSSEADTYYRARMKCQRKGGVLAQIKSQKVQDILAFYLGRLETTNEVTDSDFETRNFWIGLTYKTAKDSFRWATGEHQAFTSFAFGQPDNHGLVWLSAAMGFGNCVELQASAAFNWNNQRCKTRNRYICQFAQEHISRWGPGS , what is its reported glycan array binding signal (z-score)?
OUT: 0.889
